The measured values listed here are drawn from patent US20230240966.

Provide the reported relative activity (initial increase in OD405) of each item.
Biological target: T1, Suc-AAPI-pNA
T1 chain: AAPI
Conditions: scale: relative to the substrate with the highest activity
Format: numeric value only, no unit, no commentary.

Input: Fill in the blank: the reported relative activity (initial increase in OD405) of Glutamyl endopeptidase II sprE from Streptomyces griseus (protein) VLGGGAIYGGGSRCSAAFNVTKGGARYFVTAGHCTNISANWSASSGGSVVGVREGTSFPTNDYGIVRYTDGSSPAGTVDLYNGSTQDISSAANAVVGQAIKKSGSTTKVTSGTVTAVNVTVNYGDGPVYNMVRTTACSAGGDSGGAHFAGSVALGIHSGSSGCSGTAGSAIHQPVTEALSAYGVTVY is ____.
Output: 0

Input: Please do the same for Trypsin from Fusarium oxysporum (protein) IVGGTSASAGDFPFIVSISRNGGPWCGGSLLNANTVLTAAHCVSGYAQSGFQIRAGSLSRTSGGITSSLSSVRVHPSYSGNNNDLAILKLSTSIPSGGNIGYARLAASGSDPVAGSSATVAGWGATSEGGSSTPVNLLKVTVPIVSRATCRAQYGTSAITNQMFCAGVSSGGKDSCQGDSGGPIVDSSNTLIGAVSWGNGCARPNYSGVYASVGALRSFIDTYA as well.
Output: 0

Input: Now the protein Subtilisin 309 variant from Bacillus clausii (protein) AQSVPWGIERVQAPAAHNRGLTGSGVKVAVLDTGISTHPDLRIRGGASFVPGEPSTQDGNGHGTHVAGTIAALDNSIGVLGVAPSEALYAVKVLGASGSGSVSSIAQGLEWAGNNGMHVANLSLGSPSPSATLEQAVNSATSRGVLVVAASGNSGAGSISYPARYANAMAVGATDQNNNRASFSQYGAGLDIVAPGVNILSTWPGSTYASLNGTSMATPHVAGAAALVKQKNPSWSNVQIRNHLKNTATSLGDTWEYGSGLVNAEAATR
Output: 0.0003
